Experimental System: T1, Human VSIG4-L-Fc (human)
T1 construct: also called hVSIG4-L-Fc; hVSIG4-L
T1 sequence (chain, as listed by the source limits assumed): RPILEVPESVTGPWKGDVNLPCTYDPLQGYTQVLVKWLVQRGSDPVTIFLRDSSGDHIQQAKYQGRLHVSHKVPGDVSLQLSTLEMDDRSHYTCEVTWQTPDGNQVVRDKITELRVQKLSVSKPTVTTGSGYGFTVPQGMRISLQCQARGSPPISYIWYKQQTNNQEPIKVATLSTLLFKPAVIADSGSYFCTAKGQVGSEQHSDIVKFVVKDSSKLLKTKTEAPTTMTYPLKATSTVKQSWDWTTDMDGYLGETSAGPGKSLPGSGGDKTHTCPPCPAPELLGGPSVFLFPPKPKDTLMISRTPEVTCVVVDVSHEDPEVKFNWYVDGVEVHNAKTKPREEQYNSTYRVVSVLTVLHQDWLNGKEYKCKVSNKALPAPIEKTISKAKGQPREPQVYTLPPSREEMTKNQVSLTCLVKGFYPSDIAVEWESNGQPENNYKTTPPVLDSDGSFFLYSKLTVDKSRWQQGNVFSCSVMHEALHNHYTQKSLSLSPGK
Protocol Text: ligand blocking of C3b, IgG
Binary classification by Percent Blocking C3b, with 90% as an inclusive lower bound for satisfied; all other cases are not satisfied.

• 14C05 mouse/human chimeric IgG4 (S228P) kappa (antibody, V domains shown) VH: EVMLVESGPELKKPGETVKISCKASGYTFTNYGMNWVKQAPGKGLKWMGSINTYTGEATYADDFKGRFAFSLETSANTAYLQIDNLKNEDTATYFCARGDYYGRGTWFAYWGQGTLVTVSA VL: ETTVTQSHKFMSTSVGDRVSITCKASQDVSTAVAWYQQKPGQSPKLLIYSASYRYPGVPDRFTGSGSGTDFTFTISSVQAEDLAVYYCQQDYSSPWTFGGGTKLEIKR = satisfied

Inquiry: Can 14D12 mouse/human chimeric IgG4 (S228P) kappa (antibody, V domains shown) VH: QIQLVQSGPELKKPGETVKISCKASGYTFTNYGMNWVKQTPGKGLKWMGLINTYTGEPTYADDFKGRFAFSLETSASTAYLQINNLKNEDMATYFCARERIYGYLHYFDYWGQGTTLTVSS VL: DVVMTQTPASLAVSLGQRATISCKASQSVDYDGDSYMNWYQQKPGQPPKLLIYAASNLESGIPARFSGSGSGTDFTLNIHPVEEEDAATYYCQQSNEDPRTFGGGTKLEIKR be said to have Percent Blocking C3b at or above 90%?
Reply text: satisfied
